Target entity: recombinant human ACC2 (rhACC2) (Homo sapiens, UniProt O00763, V2141I)
Construct: a full length Cytomax clone of ACC2 was purchased from Cambridge Bioscience Limited
Test: recombinant hACC2 Transcreener assay (direct inhibition of ACC2 activity)
Measurement setup: Transcreener ADP detection FP assay, 50 μM ATP, 30 μM acetyl-CoA, 50 min at 25° C.
pIC50: −log10 of the molar value.
Recorded endpoint: pIC50

Reference set, count: 5
CC(C)(C)n1ncc2c1C(=O)CC1(CCN(C(=O)c3cnc4[nH]ncc4c3)CC1)C2 [Example 2A-41] ... 7.05
CC(C)n1ncc2c1C(=O)CC1(CCN(C(=O)c3cccc(-c4c[nH]cn4)c3)CC1)C2 [Example 11A-3] ... 7.60
Cc1cc(C(=O)N2CCC3(CC2)CC(=O)c2c(cnn2C(C)c2ccccc2)C3)ccc1Cl (stereo not shown) [Example 2A-6] ... 7.05
CC(C)n1ncc2c1C(=O)CC1(CCN(C(=O)c3ccc4[nH]ncc4c3)CC1)C2 [Example 10A-1] ... 7.65
CC(C)(C)n1ncc2c1C(=O)CC1(CCN(C(=O)c3cccc(-n4cccn4)c3)CC1)C2 [Example 11A-17] ... 7.32

(P) CC(C)(C)n1ncc2c1C(=O)CC1(CCN(C(=O)c3ccc(-c4ncc[nH]4)cc3)CC1)C2 [Example 11A-53]
(Q) CC(C)n1ncc2c1C(=O)CC1(CCN(C(=O)c3c(O)cnc4ccccc34)CC1)C2 [Example 2A-70]
Task: Between the entries labelled P and Q , which has a larger pIC50 value on record? Let me know the label of the one you choose.
Result: P
(P: 7.64, Q: 5.42)

(a) CC(C)n1ncc2c1C(=O)CC1(CCN(C(=O)c3cc(F)c4nc[nH]c4c3)CC1)C2 [Example 2A-36]
(b) CC(C)n1ncc2c1C(=O)CC1(CCN(C(=O)c3cc4cccn4cn3)CC1)C2 [Example 11A-47]
(c) CC(C)n1ncc2c1C(=O)CC1(CCN(C(=O)c3cnc(N4CCOCC4)nc3)CC1)C2 [Example 2A-66]
(d) CC(C)n1ncc2c1C(=O)CC1(CCN(C(=O)c3ccc(N4CCOCC4)cn3)CC1)C2 [Example 11A-42]
Task: Endpoint returns the given compounds ordered by ascending pIC50. Please reply with the labels ordered as requested. Many thanks.
Result: c, d, b, a
(c: 4.85, d: 5.55, b: 6.43, a: 7.53)

(A) Cc1nc2ccc(C(=O)N3CCC4(CC3)CC(=O)c3c(cnn3C(C)(C)C)C4)cc2[nH]1 [Example 2A-21]
(B) CC(C)n1ncc2c1C(=O)CC1(CCN(C(=O)c3ccn4ccnc4c3)CC1)C2 [Example 11A-52]
(C) CC(C)n1ncc2c1C(=O)C(C)C1(CCN(C(=O)c3ccc4[nH]ncc4c3)CC1)C2 (single isomer, unassigned; (-)) [Example 5A-2]
(D) CC(C)(C)n1ncc2c1C(=O)CC1(CCN(C(=O)c3ccc4cn[nH]c4c3)CC1)C2 [Example 11A-74]
Task: Your job: order these 4 records by pIC50, ascending. Dear reader, please state the labels in the requested order.
Result: B, C, A, D
(B: 6.75, C: 7.09, A: 7.49, D: 7.77)

(P) CC(C)(C)n1ncc2c1C(=O)CC1(CCN(C(=O)c3ccc4c(c3)NC(=O)CC4)CC1)C2 [Example 2A-34]
(Q) CC(C)(C)n1ncc2c1C(=O)CC1(CCN(C(=O)c3cc4cnccc4[nH]3)CC1)C2 [Example 11A-51]
(R) O=C1CC2(CCN(C(=O)c3ccc4[nH]ncc4c3)CC2)Cc2cnn(C3COC3)c21 [Example 9A-1]
Task: List items by pIC50 in falling order. Quick reminder: the answer is the labels in the order asked.
Result: P, Q, R
(P: 7.49, Q: 6.97, R: 6.58)

(P) CC(C)(C)n1ncc2c1C(=O)CC1(CCN(C(=O)c3ccc4[nH]c(=O)[nH]c4c3)CC1)C2 [Example 2A-29]
(Q) Cn1ncc2c(=O)c(C(=O)N3CCC4(CC3)CC(=O)c3c(cnn3C(C)(C)C)C4)c[nH]c21 [Example 11A-70]
(R) CC(C)(C)n1ncc2c1C(=O)CC1(CCN(C(=O)c3cccc(-c4cc[nH]n4)c3)CC1)C2 [Example 11A-23]
(S) CC(C)n1ncc2c1C(=O)CC1(CCN(C(=O)c3ccn4cncc4c3)CC1)C2 [Example 11A-60]
Task: Rank the items in ascending order with respect to pIC50. # the answer lists labels in the order requested
Result: Q, S, R, P
(Q: 5.98, S: 6.77, R: 7.69, P: 8.01)

(A) CC(C)(C)n1ncc2c1C(=O)CC1(CCN(C(=O)c3cnc4cc[nH]c4c3)CC1)C2 [Example 2A-24]
(B) Cc1cc(C(=O)N2CCC3(CC2)CC(=O)c2c(cnn2Cc2ccccc2)C3)ccc1Cl [Example 1A-4]
Task: Pick one, A or B : lowest reported pIC50. Please identify the chosen entry by its label.
Result: B

(P) CC(C)n1ncc2c1C(=O)CC1(CCN(C(=O)c3ccc4[nH]c(=O)[nH]c4c3)CC1)C2 [Example 2A-33]
(Q) CC(C)(C)n1ncc2c1C(=O)CC1(CCN(C(=O)c3c[nH]c4ncccc34)CC1)C2 [Example 11A-19]
(R) CC(C)n1ncc2c1C(=O)CC1(CCN(C(=O)c3ccc4cnn(C)c4c3)CC1)C2 [Example 2A-10]
Task: Order these by pIC50, descending, and give the full ranking. Reply: labels, ordered per the request.
Result: P, R, Q
(P: 7.84, R: 7.53, Q: 7.15)

(a) CC(C)(C)n1ncc2c1C(=O)CC1(CCN(C(=O)c3cc(Cl)c4[nH]c(=O)[nH]c4c3)CC1)C2 [Example 2A-56]
(b) CC(C)(C)n1ncc2c1C(=O)CC1(CCN(C(=O)c3nc4ccccc4nc3N)CC1)C2 [Example 2A-39]
(c) Cc1noc(-c2cc(C(=O)N3CCC4(CC3)CC(=O)c3c(cnn3C(C)C)C4)ccn2)n1 [Example 2A-60]
Task: Put the items in order so that reported pIC50 rises from first to last. Response field: labels, in requested order.
Result: c, b, a

###

Target entity: recombinant human ACC1 (rhACC1) (Homo sapiens, UniProt Q13085, DEL44-44)
Construct: recombinant baculovirus containing full length human ACC1 cDNA; made in house; host or cells: SF9 insect cells (baculovirus)
Test: recombinant hACC1 Transcreener assay (direct inhibition of ACC1 activity)
Format: biochemical
Measurement setup: Transcreener ADP detection FP assay, 50 μM ATP, 30 μM acetyl-CoA, 120 min at 25° C.
Description: For example direct inhibition of ACC activity, for the compound of Formula (1) was determined using preparations of recombinant human ACC1 (rhACC1) and recombinant human ACC2 (rhACC2). […] The data was acquired on a Envision Fluorescence reader (Perkinelmer) using a 620 excitation Cy5 FP general dual mirror, 620 excitation Cy5 FP filter, 688 emission (S) and a 688 (P) emission filter.
pIC50: −log10 of the molar value.
Recorded endpoint: pIC50

(I) CC(C)(C)n1ncc2c1C(=O)CC1(CCN(C(=O)c3ccc(-n4cccn4)nc3)CC1)C2 [Example 11A-59]
(II) CC(C)n1ncc2c1C(=O)CC1(CCN(C(=O)c3ccc4c(c3)CC(=O)N4)CC1)C2
Task: Of I and II , which shows the smaller pIC50 value? Use the label to indicate which entry you chose.
Result: II
(II: 6.51, I: 7.06)

(I) CC(C)(C)n1ncc2c1C(=O)CC1(CCN(C(=O)c3cc(F)c4nc[nH]c4c3)CC1)C2
(II) COCC(C)n1ncc2c1C(=O)CC1(CCN(C(=O)c3ccc(Cl)c(C)c3)CC1)C2 (stereo not shown)
Task: Between I and II , whose recorded pIC50 is greater? Reply with the label of the item you choose.
Result: I

(A) CC(C)n1ncc2c1C(=O)CC1(CCN(C(=O)c3cc4ncccc4[nH]3)CC1)C2 [Example 11A-48]
(B) CC(C)n1ncc2c1C(=O)CC1(CCN(C(=O)c3cccnc3C(N)=O)CC1)C2 [Example 11A-10]
(C) CC(C)(C)n1ncc2c1C(=O)CC1(CCN(C(=O)c3cc4ccncc4[nH]3)CC1)C2 [Example 11A-73]
(D) CC(C)n1ncc2c1C(=O)CC1(CCN(C(=O)c3ccn4ccnc4c3)CC1)C2 [Example 11A-52]
(E) CC(C)n1ncc2c1C(=O)CC1(CCN(C(=O)c3cnc4[nH]cnc4c3)CC1)C2 [Example 11A-33]
Task: Ascending by pIC50, please: list the molecules accordingly. Lab note: final answer is the ordered label list.
Result: B, D, E, A, C
(B: 5.18, D: 6.26, E: 6.57, A: 7.10, C: 7.43)

###

Target entity: recombinant human ACC1 (rhACC1) (Homo sapiens, UniProt Q13085, DEL44-44)
Construct: recombinant baculovirus containing full length human ACC1 cDNA
Test: recombinant hACC1 Transcreener assay (direct inhibition of ACC1 activity)
Measurement setup: Transcreener ADP detection FP assay, 50 μM ATP, 30 μM acetyl-CoA, 120 min at 25° C.
Experimental: For example direct inhibition of ACC activity, for the compound of Formula (1) was determined using preparations of recombinant human ACC1 (rhACC1) and recombinant human ACC2 (rhACC2). […] The data was acquired on a Envision Fluorescence reader (Perkinelmer) using a 620 excitation Cy5 FP general dual mirror, 620 excitation Cy5 FP filter, 688 emission (S) and a 688 (P) emission filter.
pIC50: −log10 of the molar value.
Recorded endpoint: pIC50

Below are worked cases with known answers.
CC(C)(C)n1ncc2c1C(=O)CC1(CCN(C(=O)c3cc(Cl)c4[nH]ncc4c3)CC1)C2 ... 7.16
Cc1nc2ccc(C(=O)N3CCC4(CC3)CC(=O)c3c(cnn3C(C)(C)C)C4)cc2[nH]1 ... 7.03
CC(C)(C)n1ncc2c1C(=O)CC1(CCN(C(=O)c3cnc4[nH]ncc4c3)CC1)C2 ... 6.75
CC(C)n1ncc2c1C(=O)CC1(CCN(C(=O)c3ccc4c(c3)[nH]c(=O)n4C)CC1)C2 ... 6.78
Cn1c(=O)[nH]c2ccc(C(=O)N3CCC4(CC3)CC(=O)c3c(cnn3C(C)(C)C)C4)cc21 ... 7.04

(I) CC(C)n1ncc2c1C(=O)CC1(CCN(C(=O)c3nn(-c4ccccc4)nc3N)CC1)C2 [Example 11A-6]
(II) CC(C)n1ncc2c1C(=O)CC1(CCN(C(=O)c3cnc4cn[nH]c4c3)CC1)C2 [Example 11A-31]
(III) Cc1cccn2cc(C(=O)N3CCC4(CC3)CC(=O)c3c(cnn3C(C)(C)C)C4)nc12 [Example 11A-16]
(IV) Cc1nn(C(C)C)c2c1CC1(CCN(C(=O)c3ccc4[nH]cnc4c3)CC1)CC2=O
Task: List these items ordered by pIC50, big to small. I would appreciate it if you listed the labels in the requested order.
Result: IV, II, III, I
(IV: 7.20, II: 6.93, III: 6.21, I: 6.00)

Each recorded value in this set is attributed to patent US9139587B2.
